- EXPERIMENTAL SYSTEM: human recombinant PDE5 (Homo sapiens)
- PROTOCOL DESCRIPTION: Inhibitory effect on cGMP-PDE (one-step PDE5 assay)
- CONDITION PARAMETERS: 0.15 μM 8-[H^3 ]-cGMP, 2% DMSO, 30 minutes
pIC50: −log10 of the molar value.
Label MET when pIC50 is at or above 8; otherwise label NOT MET.

COMPOUND: Nc1ccc(/C=C/C(=O)N2CCc3c([nH]c4ccccc34)C2c2ccc3c(c2)OCO3)cc1 (stereo not drawn)
LABEL VALUE: NOT MET

COMPOUND: CC(C)C(=O)Nc1ccc(/C=C/C(=O)N2CCc3c([nH]c4ccccc34)C2c2ccc3c(c2)OCO3)cc1 (stereo not drawn)
LABEL VALUE: NOT MET

COMPOUND: CC(=O)Nc1ccc(/C=C/C(=O)N2CCc3c([nH]c4ccccc34)C2c2ccc3c(c2)OCO3)cc1 (stereo not drawn)
LABEL VALUE: MET

COMPOUND: O=C(O)c1ccc(/C=C/C(=O)N2CCc3c([nH]c4ccccc34)C2c2ccc3c(c2)OCO3)cc1 (stereo not drawn)
LABEL VALUE: MET

COMPOUND: COC(=O)c1ccc(/C=C/C(=O)N2CCc3c([nH]c4ccccc34)C2c2ccc3c(c2)OCO3)cc1 (stereo not drawn)
LABEL VALUE: NOT MET

From here, focus on the item given below.
Answer whether pIC50 of CN(C)CCOc1ccc(/C=C/C(=O)N2CCc3c([nH]c4ccccc34)C2c2ccc3c(c2)OCO3)cc1 (stereo not drawn) is greater than or equal to 8.
NOT MET

* * *

Field: EC50. Provide a value for each of the compounds that follow.
- Test system: Rat aortic smooth muscle cells (RSMC)
- PROTOCOL DESCRIPTION: cGMP level measurements in rat aortic smooth muscle cells stimulated with ANF
- Format: cell-based
- CONDITION PARAMETERS: compound 30 minutes at 37° C., then ANF (100 nM) 10 minutes, dose giving half of the stimulation at saturating concentrations

Use the examples below as a reference point.
COMPOUND: CN(C)CCOc1ccc(/C=C/C(=O)N2CCc3c([nH]c4ccccc34)[C@H]2c2ccc3c(c2)CCO3)cc1 [Example 140]
EC50: 0.1 µM

COMPOUND: O=C(/C=C/c1ccc(OCCN2CCCC2)cc1)N1CCc2c([nH]c3ccccc23)C1c1ccc2c(c1)CCO2 (centres unmarked) [Example 142]
EC50: 1.5 µM

COMPOUND: NCCOc1ccc(/C=C/C(=O)N2CCc3c([nH]c4ccccc34)[C@H]2c2ccc3c(c2)CCO3)cc1 [Example 181]
EC50: 2 µM

COMPOUND: CN(C)C[C@@H](O)COc1ccc(/C=C/C(=O)N2CCc3c([nH]c4ccccc34)C2c2ccc3c(c2)CCO3)cc1 (some centres unmarked) [Example 177]
EC50: < 1 µM

# value lookup — system Rat aortic smooth muscle cells (RSMC), readout EC50, item CCN(CC)CCOc1ccc(/C=C/C(=O)N2CCc3c([nH]c4ccccc34)[C@H]2c2ccc3c(c2)CCO3)cc1 [Example 164]
1.5 µM

* * *

Field: log10 of EC50. Provide a value for each of the compounds that follow.
- Test system: Rat aortic smooth muscle cells (RSMC)
- PROTOCOL DESCRIPTION: cGMP level measurements in rat aortic smooth muscle cells stimulated with ANF
- Assay type: cell-based
- CONDITION PARAMETERS: compound 30 minutes at 37° C., then ANF (100 nM) 10 minutes, dose giving half of the stimulation at saturating concentrations
# values: log10(EC50), units nM

Use the examples below as a reference point.
COMPOUND: CN(C)CCNc1ccc(/C=C/C(=O)N2CCc3c([nH]c4ccccc34)[C@H]2c2ccc3c(c2)CCO3)cc1
ATTRIBUTE MEASURED: log10 of EC50
TEST VALUE: 3.54

COMPOUND: CC(C)C(=O)Nc1ccc(/C=C/C(=O)N2CCc3c([nH]c4ccccc34)C2c2ccc3c(c2)OCO3)cc1 (centres unmarked)
ATTRIBUTE MEASURED: log10 of EC50
TEST VALUE: 2.60

COMPOUND: Nc1ccc(/C=C/C(=O)N2CCc3c([nH]c4ccccc34)C2c2ccc3c(c2)OCO3)cc1 (centres unmarked)
ATTRIBUTE MEASURED: log10 of EC50
TEST VALUE: 2.48

COMPOUND: COC(=O)c1ccc(/C=C/C(=O)N2CCc3c([nH]c4ccccc34)C2c2ccc3c(c2)OCO3)cc1 (centres unmarked)
ATTRIBUTE MEASURED: log10 of EC50
TEST VALUE: 2.48

COMPOUND: CC(=O)Nc1ccc(/C=C/C(=O)N2CCc3c([nH]c4ccccc34)C2c2ccc3c(c2)OCO3)cc1 (centres unmarked)
ATTRIBUTE MEASURED: log10 of EC50
TEST VALUE: 2.65

Quick one: give me log10 of EC50 for each item below, same order please.
1. CNCc1ccc(/C=C/C(=O)N2CCc3c([nH]c4ccccc34)[C@H]2c2ccc3c(c2)CCO3)cc1
2. CN(C)CCOc1ccc(/C=C/C(=O)N2CCc3c([nH]c4ccccc34)C2c2ccc3c(c2)OCO3)cc1 (centres unmarked)
3. O=C(O)c1ccc(/C=C/C(=O)N2CCc3c([nH]c4ccccc34)C2c2ccc3c(c2)OCO3)cc1 (centres unmarked)
4. CN1CCN(c2ccc(/C=C/C(=O)N3CCc4c([nH]c5ccccc45)[C@H]3c3ccc4c(c3)CCO4)cc2)CC1

3.48
3.26
3.00
3.30
